Tested Target: ROCK1 (Homo sapiens)
Construct: purchased Upstate/Chemicon 14-601
Sequence (Q13464 17-535 limits assumed): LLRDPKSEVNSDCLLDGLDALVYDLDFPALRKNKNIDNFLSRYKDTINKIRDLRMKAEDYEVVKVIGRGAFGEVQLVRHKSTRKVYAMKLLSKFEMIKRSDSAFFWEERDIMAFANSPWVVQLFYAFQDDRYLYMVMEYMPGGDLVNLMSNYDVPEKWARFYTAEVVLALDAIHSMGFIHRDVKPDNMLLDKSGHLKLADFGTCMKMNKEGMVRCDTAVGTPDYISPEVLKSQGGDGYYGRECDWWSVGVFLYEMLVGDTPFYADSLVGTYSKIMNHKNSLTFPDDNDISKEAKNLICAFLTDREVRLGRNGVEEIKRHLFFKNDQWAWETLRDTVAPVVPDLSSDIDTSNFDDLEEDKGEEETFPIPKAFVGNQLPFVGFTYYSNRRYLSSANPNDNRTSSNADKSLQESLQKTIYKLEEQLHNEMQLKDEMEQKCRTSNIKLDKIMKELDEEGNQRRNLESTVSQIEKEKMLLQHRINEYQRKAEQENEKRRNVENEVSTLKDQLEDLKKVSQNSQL
Protocol Description: Rho kinase inhibition assay (IMAP fluorescence polarization), ROCK1;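 further: kinase reaction run 60 min at room temperature, then phosphorylated substrate captured on IMAP beads for 30 min, with fluorescence polarization read in mP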
Type: biochemical
Experimental Setup: average Ki
Measure Name: Ki

Here is how some molecules turned out for Ki.
{"Molecule": "CCCCS(=O)(=O)Nc1cc(CN2CCC[C@H](Nc3ccc4[nH]ncc4c3)C2)ccc1C [Compound 1.236]", "Tested Target": "ROCK1 (Homo sapiens)", "Ki": "0.0493 µM"}
{"Molecule": "NS(=O)(=O)c1cccc(CN2CCC[C@H](Nc3ccc4[nH]ncc4c3)C2)c1 [Compound 1.215]", "Tested Target": "ROCK1 (Homo sapiens)", "Ki": "0.103 µM"}
{"Molecule": "Brc1ccc(CN2CCC[C@@H](Nc3ccc4[nH]ncc4c3)C2)cc1 [Compound 1.134]", "Tested Target": "ROCK1 (Homo sapiens)", "Ki": "0.0224 µM"}
{"Molecule": "OCCn1ccc2ccc(CN3CCC[C@@H](Nc4ccc5[nH]ncc5c4)C3)cc21 [Compound 1.108]", "Tested Target": "ROCK1 (Homo sapiens)", "Ki": "0.0256 µM"}
{"Molecule": "CCOC(=O)COc1cccc(CN2CCC[C@H](Nc3ccc4[nH]ncc4c3)C2)c1 [Compound 1.200]", "Tested Target": "ROCK1 (Homo sapiens)", "Ki": "0.0765 µM"}
{"Molecule": "c1cc(N[C@@H]2CCN(Cc3ccc4cc[nH]c4c3)C2)c2ccncc2c1 [Compound 2.057]", "Tested Target": "ROCK1 (Homo sapiens)", "Ki": "0.0062 µM"}
{"Molecule": "CSc1ccc(CN2CCC[C@@H](Nc3ccc4[nH]ncc4c3)C2)cc1 [Compound 1.074]", "Tested Target": "ROCK1 (Homo sapiens)", "Ki": "0.0401 µM"}
{"Molecule": "C#Cc1cccc(CN2CCC[C@H](Nc3ccc4[nH]ncc4c3)C2)c1 [Compound 1.153]", "Tested Target": "ROCK1 (Homo sapiens)", "Ki": "0.0628 µM"}

Record Ki per entry; entries follow.
1. CSc1cccc(CN2CCC[C@H](Nc3ccc4[nH]ncc4c3)C2)c1 [Compound 1.158]
2. C#Cc1ccc(CN2CCC[C@@H](Nc3ccc4[nH]ncc4c3)C2)cc1 [Compound 1.076]
3. Cc1ccc(CN2CC[C@@H](Nc3cccc4cnccc34)C2)cc1NS(C)(=O)=O [Compound 2.076]
4. OCCn1ccc2ccc(CN3CCC[C@H](Nc4ccc5[nH]ncc5c4)C3)cc21 [Compound 1.109]
5. Cc1ccc(CN2CCC[C@@H](Nc3ccc4[nH]ncc4c3)C2)cc1OCCO [Compound 1.161]

Ans:
1. 0.0641 µM
2. 0.0143 µM
3. 0.008 µM
4. 0.0588 µM
5. 0.0099 µM

Record Ki per entry; entries follow.
1. NC(=O)Cn1ccc2ccc(CN3CC[C@@H](Nc4cccc5cnccc45)C3)cc21 [Compound 2.058]
2. Cc1ccc(CN2CCC[C@@H](Nc3ccc4[nH]ncc4c3)C2)cc1 [Compound 1.133]
3. Cc1ccc(CN2CC[C@@H](Nc3cccc4cnccc34)C2)cc1NS(=O)(=O)N(C)C [Compound 2.077]
4. CS(=O)(=O)Nc1cc(CN2CCC[C@H](Nc3ccc4[nH]ncc4c3)C2)ccc1Cl [Compound 1.213]
5. COc1ccc(CN2CC[C@@H](Nc3cccc4cnccc34)C2)cc1 [Compound 2.047]

Ans:
0.0153 µM
0.025 µM
0.0337 µM
0.106 µM
0.0264 µM

Record Ki per entry; entries follow.
1. OCCn1cc(CN2CCC[C@@H](Nc3ccc4[nH]ncc4c3)C2)c2ccccc21 [Compound 1.273]
2. Cc1c(CN2CC[C@@H](Nc3cccc4cnccc34)C2)cccc1NS(C)(=O)=O [Compound 2.078]
3. CC(C)(C)OC(=O)NCc1cccc(CN2CCC[C@H](Nc3ccc4[nH]ncc4c3)C2)c1 [Compound 1.176]

Ans:
1. 0.0313 µM
2. 0.0183 µM
3. 0.314 µM

Record Ki per entry; entries follow.
1. C#Cc1cccc(CN2CCC[C@@H](Nc3ccc4[nH]ncc4c3)C2)c1 [Compound 1.193]
2. Cc1ccc(CN2CCC[C@H](Nc3ccc4[nH]ncc4c3)C2)cc1OCCO [Compound 1.152]
3. OCCn1cc(CN2CC[C@@H](Nc3cccc4cnccc34)C2)c2ccccc21 [Compound 2.072]

Ans:
1: 0.0649 µM; 2: 0.0198 µM; 3: 0.0075 µM
